Sourced from ChEMBL document CHEMBL1275539

Recorded MIC50 for the following compounds
tested on: Streptococcus pneumoniae; assay: Antibacterial activity against cefotaxime-intermediate Streptococcus pneumoniae isolate by agar dilution method; assay type: functional
Quick reminder: number only, in µg/mL, skip the unit.

structure	experimentalSystem	MIC50, µg/mL
CC[C@H]1OC(=O)[C@H](C)[C@@H](O[C@H]2C[C@@](C)(OC)[C@@H](O)[C@H](C)O2)[C@H](C)[C@@H](O[C@@H]2O[C@H](C)C[C@H](N(C)C)[C@H]2O)[C@](C)(O)C[C@@H](C)C(=O)[C@H](C)[C@@H](O)[C@]1(C)O	Streptococcus pneumoniae	0.25
CO/N=C(\C(=O)N[C@@H]1C(=O)N2C(C(=O)O)=C(CSc3nc(=O)c(O)nn3C)CS[C@H]12)c1csc(N)n1	Streptococcus pneumoniae	1
CC1(C)S[C@@H]2[C@H](NC(=O)[C@H](N)c3ccc(O)cc3)C(=O)N2[C@H]1C(=O)O	Streptococcus pneumoniae	4

**Q:** Quick one: MIC50 for `CO/N=C(\C(=O)N[C@@H]1C(=O)N2C(C(=O)[O-])=C(C[N+]3(C)CCCC3)CS[C@H]12)c1csc(N)n1` ?
**A:** 2

**Q:** What about `CC1(C)S[C@@H]2[C@H](NC(=O)Cc3ccccc3)C(=O)N2[C@H]1C(=O)O` ?
**A:** 2

###

test system: Streptococcus pneumoniae; assay: Antibacterial activity against penicillin-nonsusceptible Streptococcus pneumoniae assessed as percent susceptible isolates by agar dilution method; assay type: functional
measuredQuantity: Activity (%)
Lab book: enter the figure in %, no units written.

Consider the reported Activity for these molecules:
structure	experimentalSystem	Activity / %
CC[C@H]1OC(=O)[C@H](C)[C@@H](O[C@H]2C[C@@](C)(OC)[C@@H](O)[C@H](C)O2)[C@H](C)[C@@H](O[C@@H]2O[C@H](C)C[C@H](N(C)C)[C@H]2O)[C@](C)(O)C[C@@H](C)C(=O)[C@H](C)[C@@H](O)[C@]1(C)O	Streptococcus pneumoniae	63.3
CO/N=C(\C(=O)N[C@@H]1C(=O)N2C(C(=O)O)=C(CSc3nc(=O)c(O)nn3C)CS[C@H]12)c1csc(N)n1	Streptococcus pneumoniae	83.3

**Q:** Query (molecule): `CO/N=C(\C(=O)N[C@@H]1C(=O)N2C(C(=O)O)=C(COC(C)=O)CS[C@H]12)c1csc(N)n1` ; field requested: Activity
**A:** 25
